system: HepG2; assay: Cytotoxicity against human HepG2 cells assessed as reduction in cell survival at 50 uM; assay type: toxicity, cell-based; conditions: hepg2, 50 µM
readout-kind: Activity

Solved entries:
O=c1cc(-c2ccc(O)c(O)c2)oc2cc(O[C@@H]3O[C@H](CO)[C@@H](O)[C@H](O)[C@H]3O)cc(O)c12 Non-Toxic
O=c1cc(-c2ccc(O)cc2)oc2cc(O[C@@H]3O[C@H](CO)[C@@H](O)[C@H](O)[C@H]3O)cc(O)c12 Non-Toxic
O=c1cc(-c2ccc(O)c(O)c2)oc2cc(O)cc(O)c12 Toxic
O=c1cc(-c2ccc(O)cc2)oc2cc(O)cc(O)c12 Toxic
O=C(O)CC(=O)OC[C@H]1O[C@@H](Oc2cc(O)c3c(=O)cc(-c4ccc(O)cc4)oc3c2)[C@H](O)[C@@H](O)[C@@H]1O Non-Toxic

Proceed to the following item.
The reported value for `O=C(O)CC(=O)OC[C@H]1O[C@@H](Oc2cc(O)c3c(=O)cc(-c4ccc(O)c(O)c4)oc3c2)[C@H](O)[C@@H](O)[C@@H]1O` in terms of Activity is Non-Toxic

Cited source: ChEMBL document CHEMBL5321223
